# test_description: in vitro
# condition_set: dog, CC50 (μM) H3N2 Perth/16/2009
quantity_name: CC50

- NC(=O)c1ncn([C@@H]2O[C@H](CO)[C@@H](O)[C@H]2O)n1 [Ribavirin, reference compound]: > 100 µM

###

# test_description: in vitro
# condition_set: dog, CC50, MDCK cells; run with Influenza B Sichuan/379/99-M; Neutral Red
Bridge positions count the residues as written; N and C are the ends. Square brackets hold non-standard residues; d marks the D form. Peptide text beside a SMILES is read from it. S5 = C=CCCC[C@](C)(N)C(=O)O; Nle = CCCC[C@H](N)C(=O)O; Aib = CC(C)(N)C(=O)O
quantity_name: CC50

- CCCC[C@H](NC(C)=O)C(=O)N[C@@H](CC(=O)O)C(=O)N[C@H](C(=O)N[C@@H](CC(N)=O)C(=O)N[C@@]1(C)CCCC=CCCC[C@@](C)(C(=O)N[C@@H](CC(C)C)C(=O)N[C@@H](C)C(=O)N[C@H](C(=O)NC(C)(C)C(=O)N[C@@H](C)C(=O)N[C@@H](CCC(N)=O)C(N)=O)C(C)C)NC(=O)[C@H](CC(C)C)NC(=O)[C@H](CC(C)C)NC(=O)[C@H]([C@@H](C)O)NC1=O)C(C)C [SP-6] (Ac-[Nle]DVN[S5]TLL[S5]LAV[Aib]AQ-NH2; staple 5-9): > 100 µM

###

# test_description: in vitro
# condition_set: dog, CC50, run with Influenza A H3N2 Perth/16/2006 (so in the source); Visual
Bridge positions count the residues as written; N and C are the ends. Square brackets hold non-standard residues; d marks the D form. Peptide text beside a SMILES is read from it. S5 = C=CCCC[C@](C)(N)C(=O)O; Nle = CCCC[C@H](N)C(=O)O; Aib = CC(C)(N)C(=O)O
Measured CC50 accompanies every entry in the list below.
quantity_name: CC50

• CCCC[C@H](NC(C)=O)C(=O)N[C@@H](CC(=O)O)C(=O)N[C@H](C(=O)N[C@@H](CC(N)=O)C(=O)N[C@@]1(C)CCCC=CCCC[C@@](C)(C(=O)N[C@@H](CC(C)C)C(=O)N[C@@H](C)C(=O)N[C@H](C(=O)N[C@@H](CCC(N)=O)C(=O)N[C@@H](C)C(=O)N[C@@H](CCC(N)=O)C(=O)NC(C)(C)C(=O)N[C@@H](C)C(N)=O)C(C)C)NC(=O)[C@H](CC(C)C)NC(=O)[C@H](CC(C)C)NC(=O)[C@H]([C@@H](C)O)NC1=O)C(C)C [SP-20] (Ac-[Nle]DVN[S5]TLL[S5]LAVQAQ[Aib]A-NH2; staple 5-9) = > 100 µM
• CCCC[C@H](NC(C)=O)C(=O)N[C@@H](CC(=O)O)C(=O)N[C@H](C(=O)N[C@@H](CC(N)=O)C(=O)N[C@@]1(C)CCCC=CCCC[C@@](C)(C(=O)N[C@@H](CC(C)C)C(=O)N[C@@H](C)C(=O)N[C@H](C(=O)NC(C)(C)C(=O)N[C@@H](C)C(=O)N[C@@H](CCC(N)=O)C(N)=O)C(C)C)NC(=O)[C@H](CC(C)C)NC(=O)[C@H](CC(C)C)NC(=O)[C@H]([C@@H](C)O)NC1=O)C(C)C [SP-6] (Ac-[Nle]DVN[S5]TLL[S5]LAV[Aib]AQ-NH2; staple 5-9) = > 100 µM

###

Listed here are molecules together with their documented CC50.
# test_description: in vitro
# condition_set: dog, CC50, run with Influenza A H3N2 Perth/16/2006 (so in the source); Visual
Bridge positions count the residues as written; N and C are the ends. Square brackets hold non-standard residues; d marks the D form. Peptide text beside a SMILES is read from it. R8 = C=CCCCCCC[C@@](C)(N)C(=O)O; S5 = C=CCCC[C@](C)(N)C(=O)O; Nle = CCCC[C@H](N)C(=O)O; Aib = CC(C)(N)C(=O)O
quantity_name: CC50

* CCCC[C@H](NC(C)=O)C(=O)N[C@@H](CC(=O)O)C(=O)N[C@H](C(=O)N[C@@H](CC(N)=O)C(=O)N[C@@]1(C)CCCC=CCCC[C@@](C)(C(=O)N[C@@H](CC(C)C)C(=O)N[C@@H](C)C(=O)N[C@H](C(=O)N[C@@H](CCC(N)=O)C(=O)N[C@@H](C)C(=O)N[C@@H](C)C(=O)NC(C)(C)C(=O)N[C@@H](C)C(N)=O)C(C)C)NC(=O)[C@H](CC(C)C)NC(=O)[C@H](CC(C)C)NC(=O)[C@H]([C@@H](C)O)NC1=O)C(C)C [SP-22] (Ac-[Nle]DVN[S5]TLL[S5]LAVQAA[Aib]A-NH2; staple 5-9) | > 100 µM
* CCCC[C@H](NC(C)=O)C(=O)N[C@@H](CC(=O)O)C(=O)N[C@H](C(=O)N[C@@H](CC(N)=O)C(=O)N[C@]1(C)CCCCCCC=CCCC[C@@](C)(C(=O)N[C@@H](C)C(=O)N[C@@H](C)C(=O)N[C@@H](CCC(N)=O)C(N)=O)NC(=O)[C@H](C)NC(=O)[C@H](CC(C)C)NC(=O)[C@H](Cc2ccccc2)NC(=O)[C@H](CC(C)C)NC(=O)[C@H](CC(C)C)NC(=O)[C@H]([C@@H](C)O)NC1=O)C(C)C [SP-18] (Ac-[Nle]DVN[R8]TLLFLA[S5]AAQ-NH2; staple 5-12) | > 100 µM

###

# test_description: in vitro
# condition_set: dog, CC50, MDCK cells; run with Influenza A H1N1 Solomon Is./03/2006; Visual
Bridge positions count the residues as written; N and C are the ends. Square brackets hold non-standard residues; d marks the D form. Peptide text beside a SMILES is read from it. S5 = C=CCCC[C@](C)(N)C(=O)O; Nle = CCCC[C@H](N)C(=O)O; Aib = CC(C)(N)C(=O)O
quantity_name: CC50

* CCCC[C@H](NC(C)=O)C(=O)N[C@@H](CC(=O)O)C(=O)N[C@H](C(=O)N[C@@H](CC(N)=O)C(=O)N[C@@]1(C)CCCC=CCCC[C@@](C)(C(=O)N[C@@H](CC(C)C)C(=O)N[C@@H](C)C(=O)N[C@H](C(=O)NC(C)(C)C(=O)N[C@@H](C)C(=O)N[C@@H](CCC(N)=O)C(N)=O)C(C)C)NC(=O)[C@H](CC(C)C)NC(=O)[C@H](CC(C)C)NC(=O)[C@H]([C@@H](C)O)NC1=O)C(C)C [SP-6] (Ac-[Nle]DVN[S5]TLL[S5]LAV[Aib]AQ-NH2; staple 5-9) | > 100 µM

###

# test_description: in vitro
# condition_set: dog, CC50, run with Influenza A H3N2 Perth/16/2006 (so in the source); Neutral Red
Bridge positions count the residues as written; N and C are the ends. Square brackets hold non-standard residues; d marks the D form. Peptide text beside a SMILES is read from it. S5 = C=CCCC[C@](C)(N)C(=O)O; Nle = CCCC[C@H](N)C(=O)O; Aib = CC(C)(N)C(=O)O
quantity_name: CC50

* CCCC[C@H](NC(C)=O)C(=O)N[C@@H](CC(=O)O)C(=O)N[C@H](C(=O)N[C@@H](CC(N)=O)C(=O)N[C@@]1(C)CCCC=CCCC[C@@](C)(C(=O)N[C@@H](CC(C)C)C(=O)N[C@@H](C)C(=O)N[C@H](C(=O)N[C@@H](CCC(N)=O)C(=O)N[C@@H](C)C(=O)N[C@@H](CCC(N)=O)C(=O)NC(C)(C)C(=O)N[C@@H](C)C(N)=O)C(C)C)NC(=O)[C@H](CC(C)C)NC(=O)[C@H](CC(C)C)NC(=O)[C@H]([C@@H](C)O)NC1=O)C(C)C [SP-20] (Ac-[Nle]DVN[S5]TLL[S5]LAVQAQ[Aib]A-NH2; staple 5-9) | > 100 µM
* CCCC[C@H](NC(C)=O)C(=O)N[C@@H](CC(=O)O)C(=O)N[C@H](C(=O)N[C@@H](CC(N)=O)C(=O)N[C@@]1(C)CCCC=CCCC[C@@](C)(C(=O)N[C@@H](CC(C)C)C(=O)N[C@@H](C)C(=O)N[C@H](C(=O)N[C@@H](CCC(N)=O)C(=O)N[C@@H](C)C(=O)NC(C)(C)C(=O)N[C@@H](C)C(=O)N[C@@H](C)C(N)=O)C(C)C)NC(=O)[C@H](CC(C)C)NC(=O)[C@H](CC(C)C)NC(=O)[C@H]([C@@H](C)O)NC1=O)C(C)C [SP-23] (Ac-[Nle]DVN[S5]TLL[S5]LAVQA[Aib]AA-NH2; staple 5-9) | > 100 µM
* CCCC[C@H](NC(C)=O)C(=O)N[C@@H](CC(=O)O)C(=O)N[C@H](C(=O)N[C@@H](CC(N)=O)C(=O)N[C@@]1(C)CCCC=CCCC[C@@](C)(C(=O)N[C@@H](CC(C)C)C(=O)N[C@@H](C)C(=O)N[C@H](C(=O)N[C@@H](CCC(N)=O)C(=O)N[C@@H](C)C(=O)N[C@@H](C)C(=O)NC(C)(C)C(=O)N[C@@H](C)C(N)=O)C(C)C)NC(=O)[C@H](CC(C)C)NC(=O)[C@H](CC(C)C)NC(=O)[C@H]([C@@H](C)O)NC1=O)C(C)C [SP-22] (Ac-[Nle]DVN[S5]TLL[S5]LAVQAA[Aib]A-NH2; staple 5-9) | > 100 µM
